B1: ZNF263 (parent)
chain: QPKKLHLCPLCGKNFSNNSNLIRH

Variants of: B1
Test: protein stability index of a GFP-peptide fusion (GPS, HEK-293T) (PSI 1-6); higher = more stable;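 note: lentivirally expressed fusions sorted by FACS into six bins by GFP to DsRed ratio, PSI derived from sequencing read proportions per bin multiplied by bin number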
Conditions: c terminus: a fixed tail appended
Quick reference for protein stability index among some variants
Just the number, please, no unit attached.

# input Which protein stability index value belongs to `H24I` ?
# output 2.08

# input Which protein stability index value belongs to `G12A` ?
# output 2.27

# input Which protein stability index value belongs to `K13N` ?
# output 2.77

# input Which protein stability index value belongs to `P9K` ?
# output 2.63

# input Which protein stability index value belongs to `K13L` ?
# output 2.21

# input Which protein stability index value belongs to `L21E` ?
# output 2.92

# input Which protein stability index value belongs to `L10K` ?
# output 3.44
